Numbers sourced from ChEMBL document CHEMBL1152539.

Tested on: PC-3
Assay: Antiproliferative activity against human PC3 cells after 72 hrs by trypan blue exclusion assay
Type: functional, cell-based
Conditions: PC-3, 72 h
Recorded Endpoint: pIC50
Worth noting: pIC50 values are minus log10 of concentrations stated in mol/L.

Identify measured pIC50 corresponding to "CC(C)=CCC1=C(O)C(=O)c2ccccc2C1=O"
5.71

Identify measured pIC50 corresponding to "C[C@H](O)c1cc2c(o1)C(=O)c1c(O)cccc1C2=O"
5.80

Identify measured pIC50 corresponding to "CC1(C)CCC2=C(O1)c1ccccc1C(=O)C2=O"
5.95

Identify measured pIC50 corresponding to "CC(=O)c1cc2c(o1)C(=O)c1c(O)cccc1C2=O"
5.52

Identify measured pIC50 corresponding to "CC(=O)c1cc2c(o1)C(=O)c1cccc(O)c1C2=O"
6.08
